- ASSAY SYSTEM: T1, 4H745-AA
- T1 chain: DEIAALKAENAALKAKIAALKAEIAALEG
- TEST DETAILS: two-hybrid library CCmax;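 also: natural log of median RNA to DNA barcode read ratio; higher means stronger binding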
- MEASUREMENT SETUP: mean of both orientations
VALUE TYPE: interaction score
One number for each entry.

The examples below pair each entry with its known result.
DKNAALEAEIAALEAKIAALKAKNAALKG [4H3120-AA]; -1.09
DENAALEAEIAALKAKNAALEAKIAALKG [4H1142-AA]; -1.19
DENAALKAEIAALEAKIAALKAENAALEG [4H1579-AA]; 1.21
DKNAALEAKIAALEAKNAALEAKIAALEG [4H3381-AA]; -1.6
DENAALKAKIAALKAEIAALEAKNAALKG [4H1864-AA]; -1.35
DKNAALKAENAALEAKIAALKAEIAALEG [4H3753-AA]; -0.67

Proceeding to the next binder to report its interaction score.
Assign interaction score to the following record: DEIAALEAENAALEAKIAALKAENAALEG [4H171-AA]
-1.45
